The origin of these recorded values is patent US20220220218A1.

Target: T1, human CD73 (huCD73) protein, antigen of the Biacore assay (human, UniProt P21589 27-547, limits assumed)
T1 construct: also called human CD73 antigen
T1 sequence (looked up): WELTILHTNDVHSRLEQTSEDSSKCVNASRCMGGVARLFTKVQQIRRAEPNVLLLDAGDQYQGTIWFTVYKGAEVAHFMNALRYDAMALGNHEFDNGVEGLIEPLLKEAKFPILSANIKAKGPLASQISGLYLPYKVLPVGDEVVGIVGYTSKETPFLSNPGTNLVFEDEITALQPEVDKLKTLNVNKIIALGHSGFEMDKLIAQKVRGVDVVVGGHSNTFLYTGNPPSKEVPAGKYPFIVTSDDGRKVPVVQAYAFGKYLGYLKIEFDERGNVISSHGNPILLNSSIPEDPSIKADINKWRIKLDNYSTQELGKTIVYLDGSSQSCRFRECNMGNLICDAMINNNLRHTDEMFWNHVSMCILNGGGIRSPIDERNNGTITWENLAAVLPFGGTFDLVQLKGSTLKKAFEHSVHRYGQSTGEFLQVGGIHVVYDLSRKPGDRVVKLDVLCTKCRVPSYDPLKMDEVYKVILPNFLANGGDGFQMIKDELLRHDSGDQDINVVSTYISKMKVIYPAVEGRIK
Experiment: SPR Biacore T200; antibody captured on Protein A chip, CD73 in flow; 1:1 Langmuir
pKd: −log10 of the molar value.

binder	pKd
CH108 (antibody, V domains shown, also called chimeric antibody of mab108) VH: QVQLKQSGPGLVQPSQSLSITCTVFGFSLKSYGIQWVRQSPGKGLEWLGVIWSGGSADYNAAFISRLSISKDNSKSQVFFKMNSLQGDDTAIYYCAGQYGSVWGQGTSVTVSS VL: DIQMTQSPSSLSASLGERVSLTCRASQDIGDRLNWLQQEPDGTIKRLIYATSSLDSGVPKRFSGSRSGSDYSLTISSLESEDFVDYYCLQYAGSWTFGGGTKLEIK	9.44
Hab110.35 (antibody, V domains shown, VL3 + VH5; recombined with human heavy and light constant regions) VH: EVQLVQSGAEVKKPGASVKVSCKASGYTFTSYTMHWVKQAPGQGLEWIGYINPNSFYIEYNQKFKDKATLTADTSASTAYMELSSLRSEDTAVYYCARGDYDLFYDMDNWGQGTTVTVSS VL: DIQMTQSPSSLSASVGDRVTITCRASQDIGNSLNWLQQKPGGAIKRLIYATFRLDSGVPSRFSGSRSGTEYTLTISSLQPEDFADYYCQQYASFPWTFGGGTKVEIK	9.61
Hab127.31c (antibody, V domains shown, VL3 + VH1c, HCDR2 hot-spot variant; full-length antibody) VH: EVQLVQSGAEVKKPGASVKVSCKASGYTFTAYFMNWVRQAPGQGLEWMGRIYHNTGDTFYSQKFKGRVTMTVDKSTSTVYMELSSLRSEDTAVYYCATSYVGDWGQGTTVTVSS VL: DIQMTQSPSSLSASVGDRVTITCRASQDIGDSLNWLQQKPGGALKRLIYATSSLDSGVPSRFSGSGSGTEYTLTISSLQPEDFATYYCLQYASFPWTFGGGTKVEIK	9.69
Hab127.34 (antibody, V domains shown, VL3 + VH4; recombined with human heavy and light constant regions) VH: EVQLVQSGAEVKKPGASVKVSCKASGYTFTAYFMNWVMQAPGQSLEWIGRIYHNNGDTFYSQKFKGRATLTVDKSTSTVYMELRSLRSEDTAVYYCATSYVGDWGQGTTVTVSS VL: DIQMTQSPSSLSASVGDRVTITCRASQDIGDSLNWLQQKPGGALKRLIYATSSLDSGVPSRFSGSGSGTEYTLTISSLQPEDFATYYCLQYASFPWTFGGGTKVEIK	9.66
Hab127.23 (antibody, V domains shown, VL2 + VH3; recombined with human heavy and light constant regions) VH: EVQLVQSGAEVKKPGASVKVSCKASGYTFTAYFMNWVMQAPGQGLEWIGRIYHNNGDTFYSQKFKGRATLTVDKSTSTVYMELSSLRSEDTAVYYCATSYVGDWGQGTTVTVSS VL: DIQMTQSPSSLSASVGDRVTITCRASQDIGDSLNWLQQKPGKAPKRLIYATSSLDSGVPSRFSGSGSGTEYTLTISSLQPEDFATYYCLQYASFPWTFGGGTKVEIK	9.56
